Reported pest or weed control at 140 g/ha values for the following compounds.
test system: Key Grass and Sedge Weeds as well as Grass Crops; experiment: Post-emergent Test II herbicidal activity (Table 16); type: in vivo; conditions: Triticum aestivum, post-emergence, 336 h, wheat, spring (Triticum aestivum), 140 g ai/ha, 14 days after application, read-out: Visual Growth Reduction (%) 14 Days After Application TRZAS
quantity: pest or weed control at 140 g/ha

COc1c(N)nc(-c2ccc3sccc3c2)nc1C(=O)O [Compound 3.09]; 85 to 94%
COC(=O)c1nc(-c2ccc3cn[nH]c3c2)c(F)c(N)c1Cl [Compound 4.05]; 0 to 29%
Nc1c(F)c(-c2cccc3ccsc23)nc(C(=O)O)c1Cl [Compound 3.25]; 0 to 29%
COC(=O)c1nc(-c2cc3sccc3cc2F)c(F)c(N)c1Cl [Compound 3.14]; 0 to 29%
COC(=O)c1nc(-c2cccc3cn[nH]c23)c(F)c(N)c1Cl [Compound 4.13]; 0 to 29%
COC(=O)c1nc(-c2cccc3ccsc23)c(F)c(N)c1Cl [Compound 3.24]; 0 to 29%
Nc1c(F)c(-c2ccc3cn[nH]c3c2)nc(C(=O)O)c1Cl [Compound 4.06]; 0 to 29%
COC(=O)c1nc(-c2ccc3ocnc3c2)c(F)c(N)c1Cl [Compound 5.01]; 0 to 29%
COC(=O)c1nc(-c2ccc3[nH]ncc3c2)c(F)c(N)c1Cl [Compound 4.01]; 0 to 29%
COC(=O)c1nc(-c2ccc3ccsc3c2)nc(N)c1OC [Compound 3.20]; 30 to 44%
COC(=O)c1nc(-c2ccc3sccc3c2)nc(N)c1OC [Compound 3.08]; 60 to 74%
Cc1c(-c2ccc3ccsc3c2)nc(C(=O)O)c(Cl)c1N [Compound 3.19]; 0 to 29%
Cn1ncc2ccc(-c3nc(C(=O)O)c(Cl)c(N)c3F)cc21 [Compound 4.08]; 0 to 29%
COC(=O)c1nc(-c2cccc3c2cnn3C)c(F)c(N)c1Cl [Compound 4.10]; 0 to 29%
Nc1cc(-c2ccc3ccsc3c2)nc(C(=O)O)c1Cl [Compound 3.16]; 0 to 29%
COC(=O)c1nc(-c2cccc3sccc23)c(F)c(N)c1Cl [Compound 3.23]; 0 to 29%
COC(=O)c1nc(-c2ccc3c(N(C)C)noc3c2)c(F)c(N)c1Cl [Compound 8.01]; 0 to 29%
COC(=O)c1nc(-c2ccc3cnn(C)c3c2)c(F)c(N)c1Cl [Compound 4.07]; 0 to 29%
COC(=O)c1nc(-c2cc3sccc3cc2F)nc(N)c1OC [Compound 3.22]; 0 to 29%

----------
test system: Key Grass and Sedge Weeds as well as Grass Crops; assay: Post-emergent Test II herbicidal activity (Table 16); type: in vivo; conditions: Cyperus esculentus, post-emergence, 336 h, yellow nutsedge (Cyperus esculentus), 140 g ai/ha, 14 days after application, read-out: Visual Growth Reduction (%) 14 Days After Application CYPES
Measured pest or weed control at 140 g/ha values are reported for all entries that follow.
quantity: pest or weed control at 140 g/ha

COC(=O)c1nc(-c2cccc3sccc23)c(F)c(N)c1Cl; 0 to 29%
Cc1c(-c2ccc3ccsc3c2)nc(C(=O)O)c(Cl)c1N; 0 to 29%
Nc1c(Cl)c(C(=O)O)nc(-c2ccc3ccsc3c2)c1Cl; 0 to 29%
Cn1ncc2ccc(-c3nc(C(=O)O)c(Cl)c(N)c3F)cc21; 0 to 29%
COC(=O)c1nc(-c2ccc3ccsc3c2)c(F)c(N)c1Cl; 0 to 29%
Cc1c(-c2ccc3sccc3c2)nc(C(=O)O)c(Cl)c1N; 0 to 29%
COC(=O)c1nc(-c2ccc3cn[nH]c3c2)c(F)c(N)c1Cl; 0 to 29%
COC(=O)c1nc(-c2ccc3cn[nH]c3c2)cc(N)c1Cl; 0 to 29%
COC(=O)c1nc(-c2ccc3ccsc3c2)nc(N)c1OC; 85 to 94%
Nc1c(F)c(-c2ccc3scnc3c2)nc(C(=O)O)c1Cl; 45 to 59%
COC(=O)c1nc(-c2ccc3cnn(C)c3c2)c(F)c(N)c1Cl; 0 to 29%
COC(=O)c1nc(-c2ccc3c(cnn3C)c2)c(F)c(N)c1Cl; 0 to 29%
COC(=O)c1nc(-c2ccc3scnc3c2)c(F)c(N)c1Cl; 45 to 59%
COC(=O)c1nc(-c2ccc3ncn(C)c3c2)c(F)c(N)c1Cl; 0 to 29%
COC(=O)c1nc(-c2cc3sccc3cc2F)nc(N)c1OC; 0 to 29%
COC(=O)c1nc(-c2cccc3ccsc23)c(F)c(N)c1Cl; 0 to 29%
Nc1cc(-c2ccc3ccsc3c2)nc(C(=O)O)c1Cl; 45 to 59%
COC(=O)c1nc(-c2ccc3[nH]ncc3c2)c(F)c(N)c1Cl; 0 to 29%
COC(=O)c1nc(-c2cccc3ccsc23)cc(N)c1Cl; 0 to 29%
Nc1c(F)c(-c2cccc3ccsc23)nc(C(=O)O)c1Cl; 0 to 29%
COC(=O)c1nc(-c2cccc3cn[nH]c23)c(F)c(N)c1Cl; 0 to 29%
Nc1c(F)c(-c2ccc3ccsc3c2)nc(C(=O)O)c1Cl; 0 to 29%
COC(=O)c1nc(-c2ccc3c(N(C)C)noc3c2)c(F)c(N)c1Cl; 0 to 29%
COc1c(N)nc(-c2ccc3ccsc3c2)nc1C(=O)O; 0 to 29%
COC(=O)c1nc(-c2cc3sccc3cc2F)c(F)c(N)c1Cl; 0 to 29%
COC(=O)c1nc(-c2cc3sccc3cc2F)cc(N)c1Cl; 0 to 29%
COc1c(N)nc(-c2ccc3sccc3c2)nc1C(=O)O; 0 to 29%
COC(=O)c1nc(-c2cccc3c2cnn3C)c(F)c(N)c1Cl; 0 to 29%
COC(=O)c1nc(-c2ccc3[nH]nnc3c2)cc(N)c1Cl; 95 to 100%
Nc1c(F)c(-c2ccc3cn[nH]c3c2)nc(C(=O)O)c1Cl; 0 to 29%
COC(=O)c1nc(-c2ccc3sccc3c2)nc(N)c1OC; 30 to 44%
COC(=O)c1nc(-c2ccc3ccsc3c2)c(C)c(N)c1Cl; 0 to 29%
COC(=O)c1nc(-c2ccc3ccsc3c2)cc(N)c1Cl; 0 to 29%

----------
pest or weed control at 140 g/ha reference
system: Key Grass and Sedge Weeds as well as Grass Crops; test: Post-emergent Test II herbicidal activity (Table 16); format: in vivo; conditions: Cyperus esculentus, post-emergence, 336 h, yellow nutsedge (Cyperus esculentus), 140 g ai/ha, 14 d, read-out: Visual Growth Reduction (%) 14 Days After Application, CYPES
quantity: pest or weed control at 140 g/ha

COC(=O)c1nc(-c2ccc3cc[nH]c3c2F)nc(N)c1OC; 0 to 29%
COC(=O)c1nc(-c2cc3[nH]ccc3cc2F)c(F)c(N)c1Cl; 0 to 29%
COC(=O)c1nc(-c2ccc3sccc3c2)c(C)c(N)c1Cl; 0 to 29%
Nc1c(F)c(-c2ccc3ccoc3c2)nc(C(=O)O)c1Cl; 0 to 29%
COc1c(C(=O)O)nc(-c2ccc3cc[nH]c3c2F)c(F)c1N; 45 to 59%
COC(=O)c1nc(-c2ccc(Cl)c3cc[nH]c23)c(F)c(N)c1Cl; 0 to 29%
COC(=O)c1nc(-c2cc3occc3cc2F)cc(N)c1Cl; 0 to 29%
COC(=O)c1nc(-c2ccc3ccn([Si](C(C)C)(C(C)C)C(C)C)c3c2F)c(F)c(N)c1Cl; 0 to 29%
Nc1nc(-c2ccc(Cl)c3occc23)nc(C(=O)O)c1Cl; 0 to 29%
COc1c(N)nc(-c2ccc(Cl)c3occc23)nc1C(=O)O; 0 to 29%
COC(=O)c1nc(-c2ccc3cc[nH]c3c2F)c(F)c(N)c1OC; 0 to 29%
COC(=O)c1nc(-c2cc3[nH]ccc3cc2F)cc(N)c1Cl; 0 to 29%
COC(=O)c1nc(-c2ccc(Cl)c3ccoc23)cc(N)c1Cl; 75 to 84%
COC(=O)c1nc(-c2ccc3[nH]ccc3c2)c(F)c(N)c1Cl; 0 to 29%
Nc1c(Cl)c(C(=O)O)nc(-c2ccc3sccc3c2)c1Cl; 0 to 29%
COC(=O)c1nc(-c2ccc3sccc3c2)cc(N)c1Cl; 0 to 29%
Cn1ccc2cc(-c3nc(C(=O)O)c(Cl)c(N)c3F)ccc21; 0 to 29%
COC(=O)c1nc(-c2ccc3cc[nH]c3c2F)nc(N)c1Cl; 0 to 29%
COC(=O)c1nc(-c2ccc3sccc3c2)c(F)c(N)c1Cl; 45 to 59%

----------
pest or weed control at 35 g/ha overview
test system: Key Grass and Sedge Weeds as well as Grass Crops; assay: Post-emergent Test II herbicidal activity (Table 16); assay type: in vivo; conditions: Zea mays, post-emergence, 336 h, maize, corn (Zea mays), 35 g ai/ha, 14 d, read-out: Visual Growth Reduction (%) 14 Days After Application, ZEAMX
quantity: pest or weed control at 35 g/ha

Cc1c(-c2ccc3sccc3c2)nc(C(=O)O)c(Cl)c1N; 0 to 29%
COC(=O)c1nc(-c2ccc3cc[nH]c3c2)c(F)c(N)c1Cl; 45 to 59%
Cn1ccc2cc(-c3nc(C(=O)O)c(Cl)c(N)c3F)ccc21; 0 to 29%
COC(=O)c1nc(-c2ccc3sccc3c2)c(C)c(N)c1Cl; 0 to 29%
COC(=O)c1nc(-c2cc3ccoc3cc2F)cc(N)c1Cl; 60 to 74%
COC(=O)c1nc(-c2ccc(Cl)c3ccoc23)c(F)c(N)c1Cl; 0 to 29%
COC(=O)c1nc(-c2ccc3occc3c2)nc(N)c1OC; 0 to 29%
Nc1c(F)c(-c2cccc3cc[nH]c23)nc(C(=O)O)c1Cl; 0 to 29%
Nc1c(F)c(-c2ccc3cc[nH]c3c2)nc(C(=O)O)c1Cl; 60 to 74%
